tested on: HCT-116; test: Cytotoxicity against human HCT116 cells assessed as growth inhibition after 48 hrs by sulforhodamine B assay; type: functional; settings: HCT-116, 48 h
# TGI annotations
Value expressed in µM; do not type the unit.

{"given_smiles": "COc1cc2c(cc1OC)C(=O)/C(=C/c1cc(-c3ccc4c(c3)OCO4)n[nH]1)C2", "assayed_target": "HCT-116", "TGI [µM]": 2.54}
{"given_smiles": "COc1cc(C(=O)/C=C/c2cc(-c3cc(OC)c(OC)c(OC)c3)n[nH]2)cc(OC)c1OC", "assayed_target": "HCT-116", "TGI [µM]": 2.59}
{"given_smiles": "COc1cc(-c2cc(/C=C/C(=O)c3ccc(Cl)c(Cl)c3)[nH]n2)cc(OC)c1OC", "assayed_target": "HCT-116", "TGI [µM]": 21.5}
{"given_smiles": "COc1cc(C(=O)/C=C/c2cc(-c3ccc4c(c3)OCO4)n[nH]2)cc(OC)c1OC", "assayed_target": "HCT-116", "TGI [µM]": 4.63}
{"given_smiles": "COc1ccc(C(=O)/C=C/c2cc(-c3ccc4c(c3)OCO4)n[nH]2)cc1OC", "assayed_target": "HCT-116", "TGI [µM]": 7.99}

Field TGI (entry COc1ccc(-c2cc(/C=C/C(=O)c3ccc(N)cc3)[nH]n2)cc1OC ) reads 3.51

Field TGI (entry COc1ccc(-c2cc(/C=C/C(=O)c3ccc(OC)c(OC)c3)[nH]n2)cc1 ) reads 2.48
